System: SK-MEL-2 melanoma
protocol details: NCI-60 one-dose screen, 48 h
run conditions: 10 µM unless noted
About 83,000 compounds went through this panel and 20% of them were active in at least one assay; those are over-represented in the sample as a whole. Activity calls are given as the source filed them. How the source made its calls: active means growth percent below 10; inactive means the rest.
Reply using exactly one outcome from yes for active, no for inactive

Example entries begin here.
compound	subject of test	label class
Cc1ccc(C(C)C)cc1NC(=O)Nc1ccc([N+](=O)[O-])cc1	SK-MEL-2 melanoma	yes
COc1ccc2[nH]c(-c3ccccc3)cc2c1	SK-MEL-2 melanoma	no
Cc1nn(-c2ccc(Br)cc2)c2nc3c(nc12)C(=O)C(=O)c1ccccc1-3	SK-MEL-2 melanoma	no
COc1c(O)cc2oc3cc(O)c(CC=C(C)C)c(O)c3c(=O)c2c1C/C=C(\C)CCC=C(C)C	SK-MEL-2 melanoma	no
O=C1OCCCCCCCCCC#Cc2ccccc21	SK-MEL-2 melanoma	no
O=C1c2ccccc2-c2c1nc1ccccc1[n+]2[O-]	SK-MEL-2 melanoma	no
Cc1ccc2c(c1)O/C(=C\c1ccc([N+](=O)[O-])o1)C2=O	SK-MEL-2 melanoma	no
COc1cc(C2NC(c3ccc(Cl)cc3)C(C)/C(=N/NC(N)=S)C2C)cc(OC)c1OC (stereo unspecified)	SK-MEL-2 melanoma	no
OCCOc1c(Cl)cc(Cl)cc1Cl	SK-MEL-2 melanoma	no
O=[N+]([O-])c1cnc(Sc2ccncn2)c([N+](=O)[O-])c1	SK-MEL-2 melanoma	no

Alright, here's another compound for you.
Hi, do you know how Cc1nc2c(O)cccc2cc1CO came out in this test?
no

---

Tested on: ACHN renal
protocol details: NCI-60 one-dose screen, 48 h (100 = growth as untreated, 0 = no growth, -100 = all killed)
run conditions: 10 µM unless noted
Method: Growth inhibition of the ACHN human tumor cell line is measured as a screen for anti-cancer activity. Cells are grown in 96 well plates and exposed to the test compound for 48 hours. Compounds are tested at a single concentration, which is 10^-5 M for most compounds. The reported endpoint is percent growth (GI% or GIPRCNT), where numbers from 0 - 100% represent growth inhibition, and numbers from -100% - 0 represent cell death. For example, a value of 40 represents 60% growth inhibition. […]
This is part of a sample that, as a whole, favours compounds with a hit. Of some 83,000 tested, about 20% had one in any assay.
attribute measured: growth (%)
Kindly provide the numeric value in % only, without the unit symbol.

Below: 4 molecules and their reported growth.
molecule	growth [%]
O=C(Nc1ccc(Nc2ccncc2)cc1)c1ccc(Nc2ccnc3ccc([N+](=O)[O-])cc23)cc1[N+](=O)[O-]	65.9
O=C(Nc1ccncc1)C(=O)c1cn(S(=O)(=O)c2cccc(F)c2)c2ccccc12	55.9
O=C(/C(=N/O)S(=O)(=O)c1ccccc1)c1cccs1	112
CN(C)c1nc(N)nc(Cn2c(-c3nonc3N)nc3ccccc32)n1	88.3

Next item in the queue.
The molecule CN(C)CCCN1c2nc3ccccc3cc2Sc2cc3ccccc3nc21 showed growth equal to -100

---

Tested on: M14 melanoma
protocol details: NCI-60 one-dose screen, 48 h (100 = growth as untreated, 0 = no growth, -100 = all killed)
run conditions: 10 µM unless noted
Compounds without any hit were thinned out: in the full panel of roughly 83,000, 20% have a hit.
attribute measured: growth (%)
Kindly provide the numeric value in % only, without the unit symbol.

The molecule COC(=O)CCC1=C(C)C(C)=N/C1=C\c1[nH]c(-c2ccc[nH]2)cc1OC showed growth equal to 9.58

---

Tested on: OVCAR-5 ovarian
protocol details: NCI-60 one-dose screen, 48 h
run conditions: 10 µM unless noted
Procedure: Growth inhibition of the OVCAR-5 human tumor cell line is measured as a screen for anti-cancer activity. Cells are grown in 96 well plates and exposed to the test compound for 48 hours. Compounds are tested at a single concentration, which is 10^-5 M for most compounds. The reported endpoint is percent growth (GI% or GIPRCNT), where numbers from 0 - 100% represent growth inhibition, and numbers from -100% - 0 represent cell death. For example, a value of 40 represents 60% growth inhibition. […]
Compounds without any hit were thinned out: in the full panel of roughly 83,000, 20% have a hit. Activity calls are given as the source filed them. Rule for the calls: active = growth percent below 10; inactive = the rest.
Reply using exactly one outcome from active, inactive

compound	label class
COC(=O)CCC1=C(C)C(C)=N/C1=C\c1[nH]c(-c2ccc[nH]2)cc1OC	inactive
CCOc1nc(-c2ccccc2)cc2c(O)c(-c3nnco3)[nH]c(=O)c12	inactive

Hi, do you know how COc1cc(/C=C/C(=O)N2CCN(C(=O)/C=C/c3ccccc3)CC2)cc(OC)c1OC came out in this test?
inactive

Hi, do you know how C=CCCCCCCCCC(=O)[O][Sn]([CH2]CCC)([CH2]CCC)[CH2]CCC came out in this test?
active

Hi, do you know how CCCCCCCCCCCCCCCCCC1=NC(C)(C)CN1CCO came out in this test?
inactive

Hi, do you know how Cc1ccccc1-c1cc(Cc2ccccc2O)c(=O)[nH]n1 came out in this test?
inactive

Hi, do you know how Cn1cc(-c2csc(-c3cn(C)c4ncccc34)n2)c2cc(Br)cnc21 came out in this test?
inactive

Hi, do you know how NC(=Nc1ccccc1)SCCCCSC(N)=Nc1ccccc1 came out in this test?
inactive

Hi, do you know how CCOC(=O)c1c2c(c(C)n1Cc1ccccc1)-c1nc(N)ncc1CC2 came out in this test?
inactive

Hi, do you know how CC(C)C(=O)Cc1cnccn1 came out in this test?
inactive

Hi, do you know how c1ccc2c(c1)[nH]c1c2cc[n+]2cc3c(cc12)CCCC3 came out in this test?
inactive

Hi, do you know how O=C1c2ccccc2-c2c1nc1ccccc1[n+]2[O-] came out in this test?
inactive

Hi, do you know how O=[N+]([O-])c1ccc2c(c1)S(=O)c1cc([N+](=O)[O-])ccc1N2 came out in this test?
inactive

Hi, do you know how Cc1cc([N+](=O)[O-])c(C)cc1C(=O)O came out in this test?
inactive

Hi, do you know how COc1cc(/C=C2\COc3ccc(O)cc3C2=O)cc(OC)c1 came out in this test?
inactive

Hi, do you know how CCC1=C(c2ccc(OC)cc2)C(C)(C)Oc2cc(O)c(CN3CCCC3)cc21 came out in this test?
inactive

Hi, do you know how COc1c(C)c2c(c(O)c1C/C=C(\C)CCC(=O)OCCN1CCOCC1)C(=O)OC2 came out in this test?
inactive

Hi, do you know how O=C1OCCCCCCCCCC#Cc2ccccc21 came out in this test?
inactive

Hi, do you know how ClC1=C(Cl)C(Cl)=C(Cl)C1=C/C=C/c1ccccc1 came out in this test?
active

Hi, do you know how CCCCC1Nc2nc(SC)n(C)c(=O)c2CN(Cc2ccccc2)C1=O (stereo not drawn) came out in this test?
inactive

Hi, do you know how COc1ccc(-c2c(N)noc2-c2cc(OC)c3c(c2)OCCO3)cc1 came out in this test?
inactive

Hi, do you know how C[n+]1ccc(Nc2ccc(NC(=O)c3ccc(Nc4cc[n+](C)c5ccc(N)cc45)cc3)cc2)cc1 came out in this test?
inactive

Hi, do you know how CCOC(=O)c1ccccc1OC(=O)NNc1ccccc1 came out in this test?
inactive

---

Measured growth values are reported for all entries that follow.
Tested on: SNB-19 CNS
protocol details: NCI-60 one-dose screen, 48 h (100 = growth as untreated, 0 = no growth, -100 = all killed)
run conditions: 10 µM unless noted
The panel holds about 83,000 compounds, 20% with a hit somewhere; the sample as a whole holds those more often. Active and inactive are the calls of the source. The calls were made as follows: active = growth percent below 10; inactive = the rest.

compound	growth
COC(=O)CCC1=C(C)C(C)=N/C1=C\c1[nH]c(-c2ccc[nH]2)cc1OC	35% (inactive)
O=C(O)C(=O)O	91.7% (inactive)
O=C(Oc1ccc[nH]c1=O)c1cccc(Cl)c1	85.8% (inactive)

Case Cc1ccc([N+](=O)[O-])cc1NC(=O)Nc1cccc(F)c1 , SNB-19 CNS, growth recorded as 64.1% (inactive)

Case COc1ccc(OC)c(/C=C/c2nc(=S)n(-c3ccc(Cl)cc3)[nH]2)c1 , SNB-19 CNS, growth recorded as 51.2% (inactive)

---

Measured growth values are reported for all entries that follow.
Tested on: SK-MEL-2 melanoma
protocol details: NCI-60 one-dose screen, 48 h (100 = growth as untreated, 0 = no growth, -100 = all killed)
run conditions: 10 µM unless noted
The panel holds about 83,000 compounds, 20% with a hit somewhere; the sample as a whole holds those more often.
Kindly provide the numeric value in % only, without the unit symbol.

compound	readout unit	growth
CN(C)c1ccc(/C=C\c2ccnc3ccccc23)cc1	%	18.7
O=C1/C(=C/c2ccc3cccc(Cl)c3n2)SC(=S)N1CCc1ccc(O)cc1	%	101
NS(=O)(=O)c1ccc(NC2=C(Cl)C(=O)c3ccccc3C2=O)cc1	%	102
NC(N)=N/N=C(/c1ccccc1)c1ccc(Cl)cc1	%	118

Next item in the queue.
The compound C=Cc1nn2c(CCC(=O)c3nc4ccccc4[nH]3)nnc2s1 showed growth equal to 97.5
